Reference for the values: patent US9156801B2

Test system: Hep G2 cell line
Assay: solid tumor cell growth inhibition, MTT
Format: cell-based, human
Conditions: Homo sapiens, HepG2; Hep G2, 72 h
Protocol: […] Obtaining 4000 well-growing human solid tumor cells and inoculating them into wells of a 96-well cell culture plate. […] Then the relative number of the living cells is determined by MTT method. […]
observed_property: IC50

These recorded examples may help you get a feel for the data.
COC(=O)[C@]12CCC(C)(C)CC1C1=CCC3[C@@]4(C)CC(C(=O)NC5CC5)C(=O)C(C)(C)C4CC[C@@]3(C)[C@]1(C)CC2 (stereo partly drawn) [BS-OA-034]
> 16 µg/mL
COC(=O)[C@]12CCC(C)(C)CC1C1=CCC3[C@@]4(C)CC(C(=O)NCCc5ccccn5)C(=O)C(C)(C)C4CC[C@@]3(C)[C@]1(C)CC2 (stereo partly drawn) [BS-OA-032]
> 16 µg/mL
CN(C)CCCNC(=O)C1C[C@@]2(C)C(CC[C@]3(C)C2CC=C2C4CC(C)(C)CC[C@]4(C(=O)O)CC[C@]23C)C(C)(C)C1=O (stereo partly drawn) [BS-OA-109]
> 16 µg/mL
CCN(CC)CCCNC(=O)C1C[C@@]2(C)C(CC[C@]3(C)C2CC=C2C4CC(C)(C)CC[C@]4(C(=O)O)CC[C@]23C)C(C)(C)C1=O (stereo partly drawn) [BS-OA-108]
> 16 µg/mL
COC(=O)[C@]12CCC(C)(C)CC1C1=CCC3[C@@]4(C)CC(C(=O)NCCCN(C)C)C(=O)C(C)(C)C4CC[C@@]3(C)[C@]1(C)CC2 (stereo partly drawn) [BS-OA-042]
2.36 µg/mL

Just so you know, measured IC50 for COC(=O)[C@]12CCC(C)(C)CC1C1=CCC3[C@@]4(C)CC(C(=O)NCCCN5CCN(C)CC5)C(=O)C(C)(C)C4CC[C@@]3(C)[C@]1(C)CC2 (stereo partly drawn) [BS-OA-078] came out at 4.77 µg/mL

====

Tested on: NB4 cell line
Assay: leukemia cell growth inhibition, MTT
Format: cell-based
Details: Homo sapiens, NB-4; NB4, 16 μg/mL compound, 72 h; read-out: IR (cell proliferation inhibition rate)
Source text: Leukemia cell lines: leukemia cell lines: K562/adr (drug-resistant, chronic myeloid leukemia, CML), NB4 (acute promyelocytic leukemia, AML), Kasumi-1 (acute myeloid leukemia M2 type, AML-M2), Jurkat (acute lymphoblastic leukemia, ALL), all of which are donated by Cancer Research Institute of Zhejiang University, China; and H9 (acute lymphoblastic leukemia, ALL), which is purchased from China Center for Type Culture Collection (CCTCC). […]
observed_property: inhibition at 16 µg/mL (%)
Value expressed in %; do not type the unit.

In the examples that follow, each entry is paired with its recorded inhibition at 16 µg/mL.
COC(=O)[C@]12CCC(C)(C)CC1C1=CCC3[C@@]4(C)CC(C(=O)NCCc5cccnc5)C(=O)C(C)(C)C4CC[C@@]3(C)[C@]1(C)CC2 (stereo partly drawn) [BS-OA-027]
93.8
CCOCCNC(=O)C1C[C@@]2(C)C(CC[C@]3(C)C2CC=C2C4CC(C)(C)CC[C@]4(C(=O)OC)CC[C@]23C)C(C)(C)C1=O (stereo partly drawn) [BS-OA-053]
71.3
CN1CCN(CCCNC(=O)C2C[C@]3(C)[C@H]4CC=C5[C@@H]6CC(C)(C)CC[C@]6(C(=O)O)CC[C@@]5(C)[C@]4(C)CC[C@H]3C(C)(C)C2=O)CC1 (stereo partly drawn) [BS-OA-110]
78.8
COC(=O)[C@]12CCC(C)(C)CC1C1=CCC3[C@@]4(C)CC(C(=O)NCCCN5CCOCC5)C(=O)C(C)(C)C4CC[C@@]3(C)[C@]1(C)CC2 (stereo partly drawn) [BS-OA-037]
97.6
COCCCNC(=O)C1C[C@]2(C)[C@H]3CC=C4[C@@H]5CC(C)(C)CC[C@]5(C(=O)OC)CC[C@@]4(C)[C@]3(C)CC[C@H]2C(C)(C)C1=O (stereo partly drawn) [BS-OA-052]
46.7

# ---- query compound ----
Entry COC(=O)[C@]12CCC(C)(C)CC1C1=CCC3[C@@]4(C)CC(C(=O)NC5CC5)C(=O)C(C)(C)C4CC[C@@]3(C)[C@]1(C)CC2 (stereo partly drawn) [BS-OA-034] — recorded inhibition at 16 µg/mL = 22.3

====

System: Jurkat cell line
Test: leukemia cell growth inhibition, MTT
Type: cell-based
Conditions: Homo sapiens, 72 h
observed_property: IC50 (mg/L)

COC(=O)[C@]12CCC(C)(C)CC1C1=CCC3[C@@]4(C)CC(C(=O)NCCCN5CCOCC5)C(=O)C(C)(C)C4CC[C@@]3(C)[C@]1(C)CC2 (stereo partly drawn)
11.5

I: CN1CCN(CCCNC(=O)C2C[C@]3(C)[C@H]4CC=C5[C@@H]6CC(C)(C)CC[C@]6(C(=O)O)CC[C@@]5(C)[C@]4(C)CC[C@H]3C(C)(C)C2=O)CC1 (stereo partly drawn)
II: CCN(CC)CCNC(=O)C1C[C@@]2(C)C(CC[C@]3(C)C2CC=C2C4CC(C)(C)CC[C@]4(C(=O)OC)CC[C@]23C)C(C)(C)C1=O (stereo partly drawn)
Prompt: I'm curious, which of these has a smaller IC50 number: I or II ? When you have decided, please share the label of that item.
Response: II
(II: 2.26 mg/L, I: 18.4 mg/L)

====

Tested on: Hep-2 cell line
Assay: solid tumor cell growth inhibition, MTT
Format: cell-based
Settings: Homo sapiens, HEp-2, 72 h
observed_property: IC50

Worked set:
CCC(C)CNC(=O)C1C[C@@]2(C)C(CC[C@]3(C)C2CC=C2C4CC(C)(C)CC[C@]4(C(=O)OC)CC[C@]23C)C(C)(C)C1=O (some centres unmarked) [BS-OA-008]
> 16 µg/mL
CC1(C)CC[C@]2(C(=O)O)CC[C@]3(C)C(=CC[C@@H]4[C@@]5(C)CC[C@H](O)C(C)(C)[C@@H]5CC[C@]43C)[C@@H]2C1 [OA, Oleanolic acid]
> 16 µg/mL

For COC(=O)[C@]12CCC(C)(C)CC1C1=CCC3[C@@]4(C)CC(C(=O)NCCN5CCCC5)C(=O)C(C)(C)C4CC[C@@]3(C)[C@]1(C)CC2 (some centres unmarked) [BS-OA-005] the molecule record lists IC50 as 5.09 µg/mL

Reported IC50 for COC(=O)[C@]12CCC(C)(C)C[C@H]1C1=CC[C@@H]3[C@@]4(C)CC(C(=O)NCCN5CCOCC5)C(=O)C(C)(C)[C@@H]4CC[C@@]3(C)[C@]1(C)CC2 (some centres unmarked) [BS-OA-059] was > 16 µg/mL

Note to self: IC50 recorded for CN1CCN(CCCNC(=O)C2C[C@]3(C)[C@H]4CC=C5[C@@H]6CC(C)(C)CC[C@]6(C(=O)O)CC[C@@]5(C)[C@]4(C)CC[C@H]3C(C)(C)C2=O)CC1 (some centres unmarked) [BS-OA-110] was > 16 µg/mL

====

Test system: Hep G2 cell line
Assay: solid tumor cell growth inhibition, MTT
Assay type: cell-based, human
Conditions: Homo sapiens, HepG2; Hep G2, 72 h
observed_property: IC50

COC(=O)[C@]12CCC(C)(C)C[C@H]1C1=CC[C@@H]3[C@@]4(C)CC(C(=O)NCCN5CCCCC5)C(=O)C(C)(C)[C@@H]4CC[C@@]3(C)[C@]1(C)CC2 (some centres unmarked)
4.89 µg/mL
COC(=O)[C@]12CCC(C)(C)C[C@H]1C1=CC[C@@H]3[C@@]4(C)CC(C(=O)NCC5CC5)C(=O)C(C)(C)[C@@H]4CC[C@@]3(C)[C@]1(C)CC2 (some centres unmarked)
> 16 µg/mL
CC1(C)CC[C@]2(C(=O)O)CC[C@]3(C)C(=CC[C@@H]4[C@@]5(C)CC(C(=O)NCCN6CCCC6)C(=O)C(C)(C)[C@@H]5CC[C@]43C)[C@@H]2C1 (some centres unmarked)
> 16 µg/mL
COC(=O)[C@]12CCC(C)(C)CC1C1=CCC3[C@@]4(C)CC(C(=O)NCCc5cccnc5)C(=O)C(C)(C)C4CC[C@@]3(C)[C@]1(C)CC2 (some centres unmarked)
15.6 µg/mL
COC(=O)[C@]12CCC(C)(C)CC1C1=CCC3[C@@]4(C)CC(C(=O)NCCN5CCCC5)C(=O)C(C)(C)C4CC[C@@]3(C)[C@]1(C)CC2 (some centres unmarked)
2.53 µg/mL

GET /value?item= CCC(C)CNC(=O)C1C[C@@]2(C)C(CC[C@]3(C)C2CC=C2C4CC(C)(C)CC[C@]4(C(=O)OC)CC[C@]23C)C(C)(C)C1=O (some centres unmarked) &field=IC50 returns > 16 µg/mL

Lab note: COC(=O)[C@]12CCC(C)(C)C[C@H]1C1=CC[C@@H]3[C@@]4(C)CC(C(=O)NCCN5CCOCC5)C(=O)C(C)(C)[C@@H]4CC[C@@]3(C)[C@]1(C)CC2 (some centres unmarked) gave IC50 of > 16 µg/mL

Form field IC50, entry COC(=O)[C@]12CCC(C)(C)CC1C1=CCC3[C@@]4(C)CC(C(=O)NCCC(C)C)C(=O)C(C)(C)C4CC[C@@]3(C)[C@]1(C)CC2 (some centres unmarked) : > 16 µg/mL

Form: molecule = CCN(CC)CCNC(=O)C1C[C@@]2(C)C(CC[C@]3(C)C2CC=C2C4CC(C)(C)CC[C@]4(C(=O)O)CC[C@]23C)C(C)(C)C1=O (some centres unmarked) ; IC50 = > 16 µg/mL

According to the records, this molecule CC1(C)CC[C@]2(C(=O)O)CC[C@]3(C)C(=CC[C@@H]4[C@@]5(C)CC[C@H](O)C(C)(C)[C@@H]5CC[C@]43C)[C@@H]2C1 displays IC50 of > 16 µg/mL

Form: molecule = CCN(CC)CCNC(=O)C1C[C@@]2(C)C(CC[C@]3(C)C2CC=C2C4CC(C)(C)CC[C@]4(C(=O)OC)CC[C@]23C)C(C)(C)C1=O (some centres unmarked) ; IC50 = 2.36 µg/mL
